molecular target: HLA-B*45:06; assay: IEDB peptide-MHC binding, purified MHC/competitive/fluorescence; filed as Kd, often an IC50 or EC50 that approximates it; bounds were set here for any values at or beyond the usual limits of such assays; conditions: source organism: Vaccinia virus WR
MEASUREMENT LABEL: Kd

For the sequence shown here, LMYPTTLLK , give the reported Kd.
≥ 5 µM

For the sequence shown here, MPAYIRNTL , give the reported Kd.
≥ 5 µM

====

target: HLA-B*58:01; assay: IEDB peptide-MHC binding, purified MHC/direct/fluorescence; filed as Kd, often an IC50 or EC50 that approximates it; bounds were set here for any values at or beyond the usual limits of such assays; settings: source organism: Sudan ebolavirus - Maleo (1979)
MEASUREMENT LABEL: Kd

For the sequence shown here, MHYKLDEVL , give the reported Kd.
≥ 20 µM
